Recorded TGI, one value per entry.
Tested on: DMS 114 small cell lung
Assay: NCI tumour cell line growth inhibition, 48 h

As a guide, the following entries are already answered.
>>> test_value("Nc1ccccc1Sc1ccc(Cl)cc1")
"59.3 µM"
>>> test_value("O=Cc1[nH]c2ccccc2c1Br")
"44.7 µM"
>>> test_value("COC1CC(OS(=O)(=O)c2ccc(C)cc2)C(OS(=O)(=O)c2ccc(C)cc2)C(COS(=O)(=O)c2ccc(C)cc2)O1 (stereo not given)")
"15.1 µM"
>>> test_value("CCCN(CCC)C(=O)Cc1c2n(c3ccccc13)Cc1ccccc1-2")
"> 100 µM"

Identify measured TGI corresponding to COc1cc2c(cc1OC)[C@@H](C(O)c1ccccc1)NCC2 (stereo not given in full) > 100 µM
